Substrate: O=C(O)C=C(O)C(=O)O
measurementDescription: purified protein
testConditions: pH 7.5, 22 °C, 10 mM potassium phosphate, 0.3 mM NADH, malate dehydrogenase, OAA added in dry acetone
Would you kindly list Vmax for each of these proteins?
# unit: µmol/min/mg | format: bare number

Request: Supply Vmax value. Item: Hs FAHD2B (Homo sapiens) (protein) AAQLPVLPWSEVTFLAPVTWPDKVVCVGMNYVDHCKEQNVPVPKEPIIFSKFASSIVGPYDEVVLPPQSQEVDWEVELAVVIGKKGKHIKATDAMAHVAGFTVAHDVSARDWLTRRNGKQWLLGKTFDTFCPLGPALVTKDSVADPHNLKICCRVNGEVVQSSNTNQMVFKTEDLIAWVSQFVTFYPGDVILTGTPPGVGVFRKPPVFLKKGDEVQCEIEELGVIINKVV
Result: 112

Request: Provide one value: measured Vmax of Ec YcgM (Escherichia coli K-12) (protein) MYQHHNWQGALLDYPVSKVVCVGSNYAKHIKEMGSAVPEEPVLFIKPETALCDLRQPLAIPSDFGSVHHEVELAVLIGATLRQATEEHVRKAIAGYGVALDLTLRDVQGKMKKAGQPWEKAKAFDNSCPLSGFIPAAEFTGDPQNTTLSLSVNGEQRQQGTTADMIHKIVPLIAYMSKFFTLKAGDVVLTGTPDGVGPLQSGDELTVTFDGHSLTTRVL
Result: 372

Request: Quick one: give measured Vmax for Hs FAHD1 (Homo sapiens) (protein) MGIMAASRPLSRFWEWGKNIVCVGRNYADHVREMRSAVLSEPVLFLKPSTAYAPEGSPILMPAYTRNLHHELELGVVMGKRCRAVPEAAAMDYVGGYALCLDMTARDVQDECKKKGLPWTLAKSFTASCPVSAFVPKEKIPDPHKLKLWLKVNGELRQEGETSSMIFSIPYIISYVSKIITLEEGDIILTGTPKGVGPVKENDEIEAGIHGLVSMTFKVEKPEY
Result: 69

Request: Give the measured Vmax for Sc FMP41 (Saccharomyces cerevisiae S288C) (protein) MSYNYLKAARKIICIGRNYAAHIKELNNSTPKQPFFFLKPTSSIVTPLSSSLVKTTRPANSTFNGLNEDGTNPGPIFIPRGVKVHHEIELALIVSKHLSNVTKMKPEEVYDSISGVALALDLTARNVQDEAKKKGLPWTISKGFDTFMPISAIVSREKFSSYKSNLQDIFRVKCSVNGQLRQDGGTNLMLHPLHKILQHISTMISLEPGDIILTGTPAGVGELKPGDRVHCELLQNNDNIVDMNFECENRPGPYEFRET
Result: 717

Request: Check the records and state Vmax for Bs YisK (Bacillus subtilis subsp. subtilis str. 168) (protein) MKFATGELYNRMFVGLIIDDEKIMDLQKAEKKLFELETIPGSLIECIAEGDKFVAHARQLAEWAKKPNDELGSFMYSLSEVKLHAPIPKPSKNIICIGKNYRDHAIEMGSEADIPEHPMVFTKSPVTVTGHGDIVKSHEEVTSQLDYEGELAVVIGKSGTRISKEDAYDHVFGYTIVNDITARDLQKRHKQFFIGKSLDTTCPMGPVLVHKSSIQEPERLKVETRVNGELRQSGSASDMIFSIPELIETLSKGMTLEAGDIIATGTPSGVGKGFTPPKFLRSGDKIDITIDPIGTLSNQIG
Result: 402

Request: // fetch Vmax given entry Bt FAHD2A (Bos taurus) (protein) ATQLPVLPRSEVTFLAPVTRPDKVVCVGMNYADHCREQNVPVPKEPIIFSKFASAIVGPYDNIILPPESQEVDWEVELAVVIGKRGKYIKATDAMAHVAGFTVAHDVSARDWQMGRNGKQWLLGKTFDTFCPLGPALVTKDSVADPHNLKICCRVNGEVMQSSNTNQMVFKTEELITWVSQFVTLYPGDIILTGTPPGVGVFRKPPVFLKKGDEVQCEIEELGVIINKVV
Result: 53.5
